Values were extracted from ChEMBL document CHEMBL1944568.

# SYSTEM_NAME: CDK9/cyclin T1 (Homo sapiens, UniProt P50750)
# Sequence (O60563 whole entry): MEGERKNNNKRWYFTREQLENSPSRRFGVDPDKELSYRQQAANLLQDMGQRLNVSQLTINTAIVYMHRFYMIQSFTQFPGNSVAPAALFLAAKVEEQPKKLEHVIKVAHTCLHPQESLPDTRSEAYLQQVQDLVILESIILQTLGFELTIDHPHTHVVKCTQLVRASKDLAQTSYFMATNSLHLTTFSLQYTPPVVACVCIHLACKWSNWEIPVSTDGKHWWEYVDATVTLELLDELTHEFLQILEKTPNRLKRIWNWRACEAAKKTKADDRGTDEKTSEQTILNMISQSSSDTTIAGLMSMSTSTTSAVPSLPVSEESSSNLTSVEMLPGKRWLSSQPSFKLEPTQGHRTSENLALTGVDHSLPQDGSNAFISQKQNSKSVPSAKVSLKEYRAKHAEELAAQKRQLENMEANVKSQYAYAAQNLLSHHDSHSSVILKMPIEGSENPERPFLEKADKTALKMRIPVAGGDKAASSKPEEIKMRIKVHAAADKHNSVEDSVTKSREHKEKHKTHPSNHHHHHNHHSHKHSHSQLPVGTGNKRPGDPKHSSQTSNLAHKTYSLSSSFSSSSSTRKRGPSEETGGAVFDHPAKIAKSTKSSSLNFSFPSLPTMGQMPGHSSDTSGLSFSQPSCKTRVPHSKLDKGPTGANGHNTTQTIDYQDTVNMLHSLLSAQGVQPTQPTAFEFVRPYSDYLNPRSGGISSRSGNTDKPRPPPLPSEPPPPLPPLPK
# Sequence (P50750 whole entry): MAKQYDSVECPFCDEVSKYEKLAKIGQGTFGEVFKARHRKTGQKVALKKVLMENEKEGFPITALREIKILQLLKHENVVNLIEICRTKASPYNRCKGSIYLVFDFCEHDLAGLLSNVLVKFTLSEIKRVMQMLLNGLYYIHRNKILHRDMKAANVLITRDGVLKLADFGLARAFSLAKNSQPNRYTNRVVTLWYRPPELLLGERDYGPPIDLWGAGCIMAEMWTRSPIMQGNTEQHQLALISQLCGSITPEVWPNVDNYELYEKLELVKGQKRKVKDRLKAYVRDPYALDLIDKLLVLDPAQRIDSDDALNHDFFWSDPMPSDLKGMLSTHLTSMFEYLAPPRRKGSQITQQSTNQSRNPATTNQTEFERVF
# PROTOCOL: Inhibition of CDK9/CyclinT1
OBSERVED_PROPERTY: Ki

The cases that follow already have their Ki on record.
CC(C)c1nc2cc(Cl)c(Cl)cc2n1C1CCCC1
3.33 µM
C[S+]([O-])c1nc2cc(Cl)c(Cl)cc2n1C1CCCC1 (stereo not given)
> 5 µM
CS(=O)(=O)c1nc2cc(Cl)c(Cl)cc2n1C1CCCC1
> 5 µM

Item `Cc1nc2cc(Cl)c(Cl)cc2n1C1CCCC1` has what recorded Ki?
1.51 µM

Entry `CSc1nc2cc(Cl)c(Cl)cc2n1C1CCCC1` please
> 5 µM
